Hey, just so you know, these numbers are from the RNAGym collection of RNA variant scans (doi:10.1093/nar/gkz1192).

B1: CPEB3 Ribozyme (parent)
chain: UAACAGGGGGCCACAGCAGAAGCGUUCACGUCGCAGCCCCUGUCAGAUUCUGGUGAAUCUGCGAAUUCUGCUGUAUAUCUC

variants of: B1; assay: self-cleavage, relative activity (ratio to wild type); higher = more cleavage; in vitro, sequencing
Exercise: for every item that follows, state its recorded self-cleavage.

Field: example entries. Status: answers known.
- residue codes: "UAACAGGGGGCCACAGCAGAAGCGUUCACGUCGCAGCCCCUGUCAGAUUCUGGUGAAUCUGCGAGUUCUGCUGUGUAUCUC [A65G A75G]"
  observed property: "self-cleavage"
  recorded measurement: 0.4
- residue codes: "UAACAGGUGACCACAGCAGAAGCGUUCACGUCGCAGCCCCUGUCAGAUUCUGGUGAAUCUGCGAAUUCUGCUGUAUAUCUC [G8U G10A]"
  observed property: "self-cleavage"
  recorded measurement: 0.39
- residue codes: "UAACAGGGGGCCACAGCAGAAGCAUUCACGCCGCAGCCCCUGUCAGAUUCUGGUGAAUCUGCGAAUUCUGCUGUAUAUCUC [G24A U31C]"
  observed property: "self-cleavage"
  recorded measurement: 0.15
- residue codes: "UAACAGGGGGCCACAGCAGAAGCAUUCACGUCGCAGCCCCUGUCAGUUUCUGGUGAAUCUGCGAAUUCUGCUGUAUAUCUC [G24A A47U]"
  observed property: "self-cleavage"
  recorded measurement: 0.21
- residue codes: "UAACAGGGGGCCACAGCAGUAGCGUUCACGUCGCAGCCCCUGUCAGAUUCUGGUGAAUCUGCGAAUUCUGCGGUAUAUCUC [A20U U72G]"
  observed property: "self-cleavage"
  recorded measurement: 0.13
- residue codes: "UAACAGGGGGCCACAGCAGAAGCGUUCUCGUCGCAGCCCCUGUCAGAUUCUGGUGAAUCUGCGAUUUCUGCUGUAUAUCUC [A28U A65U]"
  observed property: "self-cleavage"
  recorded measurement: 0.33
- residue codes: "UAACAGGGGGCCACAGCAGAUGCGUUCACGACGCAGCCCCUGUCAGAUUCUGGUGAAUCUGCGAAUUCUGCUGUAUAUCUC [A21U U31A]"
  observed property: "self-cleavage"
  recorded measurement: 0.13
- residue codes: "UAACUGGGGGCCACAGCAGAAGCGUUCACGUCGCAGCCCAUGUCAGAUUCUGGUGAAUCUGCGAAUUCUGCUGUAUAUCUC [A5U C40A]"
  observed property: "self-cleavage"
  recorded measurement: 0.09
- residue codes: "UAACAGGGGGCCACAGCAGAAGCGUUCACGUCGCAGCCCCUGUCAGAUUCUGGUGAAUCUGCUAAUCCUGCUGUAUAUCUC [G63U U67C]"
  observed property: "self-cleavage"
  recorded measurement: 0.29
- residue codes: "UAACAGGGGGCCACAGCAGAAGCGUUCACGUCGCAGCCCCCGUCAGAUUCUGGUGAAUAUGCGAAUUCUGCUGUAUAUCUC [U41C C59A]"
  observed property: "self-cleavage"
  recorded measurement: 0.27

Lab note: each variant below needs its self-cleavage filled in.
1. UAACAGGGGGCCACAGCAGAAGCAUUCACGUCGCAGCCCCUGUCAGAUUCUGGUGAAUCUGCGGAUUCUGCUGUAUAUCUC [G24A A64G]
2. UAACAGGGGGCCACAGCAGAAGCGUUCACGUCGCUGCCCCUGUCAUAUUCUGGUGAAUCUGCGAAUUCUGCUGUAUAUCUC [A35U G46U]
3. UGACAGGGGGCCACAGCAGAAGCGUUCACGUCGCAGCCCCUGUCAGAUUCUGGUGAAUCUGCGAAUUCUGCUGUAUAUCGC [A2G U80G]
4. UAGCAGGGGGCCACAGCAGAAGCGUUCACGUCGUAGCCCCUGUCAGAUUCUGGUGAAUCUGCGAAUUCUGCUGUAUAUCUC [A3G C34U]
5. UAACAGGGGGCCACAGCAGAAGCGUUCACGUAGCAGCCCCAGUCAGAUUCUGGUGAAUCUGCGAAUUCUGCUGUAUAUCUC [C32A U41A]
6. UAACAGGGGGCCACAGCAGAAGCGUUCACGUCGCAGCCCCUGUCAGAUUGUGGUGAAUCUGCGAAUUCUGCAGUAUAUCUC [C50G U72A]

Return:
1: 0.36; 2: 0.19; 3: 0.17; 4: 0.25; 5: 0.27; 6: 0.58

Lab note: each variant below needs its self-cleavage filled in.
1. UAACAGGGGGCCACAGCAGAAGCGUUCACGUCGCAGCCCCUGUCAGGUUCUGGUGAAUCUGCGGAUUCUGCUGUAUAUCUC [A47G A64G]
2. UAACAGGGGGCCACAGCAGAAACGUUCACGUCGCAGCCCCUGUCAGAUUCGGGUGAAUCUGCGAAUUCUGCUGUAUAUCUC [G22A U51G]
3. UAACAGGGGGCCUCAGCAGAAGCGAUCACGUCGCAGCCCCUGUCAGAUUCUGGUGAAUCUGCGAAUUCUGCUGUAUAUCUC [A13U U25A]
4. UAACAGGGGGCCACAGCUGAAGCGUUCACGUCGCAGCCCGUGUCAGAUUCUGGUGAAUCUGCGAAUUCUGCUGUAUAUCUC [A18U C40G]

Return:
1: 0.9; 2: 0.17; 3: 0.26; 4: 0.18

Lab note: each variant below needs its self-cleavage filled in.
1. UAACAGGGGGCCACAGCAGAAACGUACACGUCGCAGCCCCUGUCAGAUUCUGGUGAAUCUGCGAAUUCUGCUGUAUAUCUC [G22A U26A]
2. UAACAGGGGGCCACAGCAGAAGCAUUCACGUCGCAGCCCCUGUUAGAUUCUGGUGAAUCUGCGAAUUCUGCUGUAUAUCUC [G24A C44U]

Return:
[0.38, 0.18]

Lab note: each variant below needs its self-cleavage filled in.
1. UAACAGGGGGCCACAGCAGAAGCGUUCACGUCGCAGGCCCUGUCAGAUUCUGGUGAAUCUGCGAAUUCUGCUGUUUAUCUC [C37G A75U]
2. UAACAGGGGGCCACAGCAGAAGCGUUCACGUCGCAGCCCCUGUCAGAUUCUGGUGAAUCUGCGAAUUCUGCAGCAUAUCUC [U72A U74C]
3. AAACAGGGGGCCACAGCAGAAGCGUUCACGUCGCAGCCCCUGUCAGAUUCUAGUGAAUCUGCGAAUUCUGCUGUAUAUCUC [U1A G52A]
4. UAUCAGGGGGCCACAGCAGAAGCGUUCAUGUCGCAGCCCCUGUCAGAUUCUGGUGAAUCUGCGAAUUCUGCUGUAUAUCUC [A3U C29U]
5. UAACAGGGGGGCACAGCAGAAGCGUUCACGUCGCAGCCCCUGUCAGAUUCUGGUGAAUCUGCGAAUGCUGCUGUAUAUCUC [C11G U67G]

Return:
[1.13, 1.16, 1.1, 0.71, 0.2]
